Origin of measurements: PubChem BioAssay (EPA / NIEHS)

Measured on: Hypoxia-inducible factor 1-alpha (Homo sapiens) (UniProt Q16665)
Sequence (Q16665 whole entry, looked up): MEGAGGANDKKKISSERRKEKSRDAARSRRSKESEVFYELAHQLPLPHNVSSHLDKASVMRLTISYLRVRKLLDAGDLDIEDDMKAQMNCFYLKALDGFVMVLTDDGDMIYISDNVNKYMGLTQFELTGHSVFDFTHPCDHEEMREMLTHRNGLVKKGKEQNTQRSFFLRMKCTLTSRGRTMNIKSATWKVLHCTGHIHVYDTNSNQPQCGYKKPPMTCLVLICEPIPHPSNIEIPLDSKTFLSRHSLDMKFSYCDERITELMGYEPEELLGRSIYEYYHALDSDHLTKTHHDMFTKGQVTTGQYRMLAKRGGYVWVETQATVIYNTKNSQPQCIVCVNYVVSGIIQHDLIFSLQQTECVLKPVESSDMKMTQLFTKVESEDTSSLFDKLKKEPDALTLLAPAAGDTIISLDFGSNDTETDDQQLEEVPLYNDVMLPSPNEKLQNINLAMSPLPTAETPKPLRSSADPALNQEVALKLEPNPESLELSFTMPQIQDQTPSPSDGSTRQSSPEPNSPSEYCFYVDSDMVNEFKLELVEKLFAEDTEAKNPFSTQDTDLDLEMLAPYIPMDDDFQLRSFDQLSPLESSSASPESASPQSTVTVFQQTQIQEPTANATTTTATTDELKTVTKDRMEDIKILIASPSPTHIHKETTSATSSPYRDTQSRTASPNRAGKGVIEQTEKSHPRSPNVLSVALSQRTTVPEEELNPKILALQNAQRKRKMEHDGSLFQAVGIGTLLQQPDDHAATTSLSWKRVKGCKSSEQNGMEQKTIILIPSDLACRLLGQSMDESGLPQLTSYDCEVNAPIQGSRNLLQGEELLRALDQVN
Test description: ATG_HIF1a_CIS: Attagene CIS-FACTORIAL HepG2 Assay for human Hypoxia Inducible Factor 1 (HIF1A) (AID 2282951)
Test settings: HepG2 Attagene cis-factorial HIF1a reporter transcription; actives raise or lower the signal
Activity calls are given as the source filed them. The calls were made as follows: active = hit-call score of the fitted dose curve at least 0.9, where 1 is the maximum; inactive = score below 0.9.
Just give me one of these, please: True = active, False = inactive

The following molecules have reported results that may help.
FC(F)(I)C(F)(F)C(F)(F)C(F)(F)I	False
Nc1ccc(Oc2cccc(Oc3ccc(N)cc3)c2)cc1	True
FC(F)(F)C(F)(F)C(F)(F)C(F)(F)C(F)(F)C(F)(F)CCS	False
CCCCCCOC(=O)c1ccccc1	False

Alright, here's another molecule for you.
Given CCN(CC)c1ccc2c(C)cc(=O)oc2c1 , state the outcome it received in this test.
False
